Origin of measurements: patent US20260274955A1

target: T1, Anti-CD28 Fab (SEQ ID NOs: 202, 203); assay: phage ELISA on captured biotinylated Fab;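 note: wells preblocked with or without CD28 antigen, then clonal phage supernatant added briefly, washed, and bound phage read out by ELISA using HRP-linked anti-M13 antibody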
T1 construct: biotinylated and captured on neutravidin coated plates in the phage ELISA
T1 sequence (VH, as listed by the source, chain 1 of 2): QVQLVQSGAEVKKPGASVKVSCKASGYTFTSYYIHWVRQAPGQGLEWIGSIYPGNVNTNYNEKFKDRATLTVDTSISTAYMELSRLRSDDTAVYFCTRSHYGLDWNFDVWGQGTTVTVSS
T1 sequence (VL, as listed by the source, chain 2 of 2): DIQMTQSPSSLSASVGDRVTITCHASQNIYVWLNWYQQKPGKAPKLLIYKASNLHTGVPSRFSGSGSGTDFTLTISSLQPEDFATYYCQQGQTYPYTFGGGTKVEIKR
Assay Readout: Anti-CD28 Fab signal
The response must contain the number and no unit.

Look over these answered cases.
>  <Binder>
YCDGHAPEYVMKCL [Phage-232]

>  <Anti-CD28 Fab signal>
2.05

$$$$
>  <Binder>
YCDGHSHEYMEKCL [Phage-257]

>  <Anti-CD28 Fab signal>
2.01

$$$$
>  <Binder>
YCDGHTQEYMAKCL [Phage-168]

>  <Anti-CD28 Fab signal>
2.17

$$$$
>  <Binder>
YCEGHLSEYMAKCL [Phage-284]

>  <Anti-CD28 Fab signal>
1.94

$$$$
>  <Binder>
YCSGHLPEYMEKCL [Phage-210]

>  <Anti-CD28 Fab signal>
2.09

$$$$

Task: Anti-CD28 Fab signal lookup needed for YCDGHLPEYLSKCL [Phage-155] , thanks.
Result: 2.19

Task: Follow-up entry: YCDGHLPVYMAKCL [Phage-195]
Result: 2.11

Task: Also need YCDGHAVEYMAKCL [Phage-161] , thanks.
Result: 2.18
